Target: human BRS-3 (subtype 3 of the human bombesin receptor) (Homo sapiens)
Construct: single-cell clone selected
Sequence (P32247 whole entry): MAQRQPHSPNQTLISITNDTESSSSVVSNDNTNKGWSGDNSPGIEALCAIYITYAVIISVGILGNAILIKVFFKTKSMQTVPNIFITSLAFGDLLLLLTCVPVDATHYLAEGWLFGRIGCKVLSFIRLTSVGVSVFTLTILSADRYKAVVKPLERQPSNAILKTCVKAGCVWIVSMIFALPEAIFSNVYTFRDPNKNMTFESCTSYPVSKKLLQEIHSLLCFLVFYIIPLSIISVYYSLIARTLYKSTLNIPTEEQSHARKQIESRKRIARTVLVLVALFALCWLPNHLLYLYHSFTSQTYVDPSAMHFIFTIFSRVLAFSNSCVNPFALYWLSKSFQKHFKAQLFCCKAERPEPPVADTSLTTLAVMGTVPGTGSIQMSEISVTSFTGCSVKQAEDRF
Test: FLIPR test: agonistic activity on BRS-3 (Ca2+ fluorescence, Fluo4) in transfected CHO cells
Conditions: CHO-K1 cells co-expressing human BRS-3 and human Gα16; 50% activation relative to maximum response of nonapeptide [D-Phe6,β-Ala11,Phe13,Nle14]Bn(6-14) (=100%)
EC50 listing for selected compounds.
Report only the number, with the unit nM understood.

Prompt: I would be grateful if you could share the reported EC50 for CC(NCCc1ccccc1)C(=O)NC(Cc1c[nH]c2ccccc12)C(=O)NCCc1ccccc1 (stereo not drawn) .
Completion: 25

Prompt: I would be grateful if you could share the reported EC50 for O=C(Cc1cc2ccccc2[nH]1)NNC(=O)NC(Cc1c[nH]c2ccccc12)C(=O)NCCc1ccccc1 (stereo not drawn) .
Completion: 2.2

Prompt: I would be grateful if you could share the reported EC50 for NC(=O)CCC(NC(=O)Cc1cc2ccccc2[nH]1)C(=O)NC(Cc1c[nH]c2ccccc12)C(=O)NCCc1ccccc1 (stereo not drawn) .
Completion: 57

Where these numbers come from: patent US7244743B2
